What TGI was measured for each of the following?
Tested on: MOLT-4 leukemia
Protocol Details: NCI tumour cell line growth inhibition, 48 h

Give TGI for each of the items listed below.
1. CCCCC[C@H]1C/C=C2/C(=O)C(Cl)=C[C@@H]2C/C=C\CCCC(=O)O1
2. Cc1cnc2[nH]c(-c3ccc(Cl)cc3)cc(=O)c2c1
3. CCc1cccc(NC(=O)c2cc(/C=C/c3ccccc3)[nH]c(=S)n2)c1
4. CC(=O)OC(C)c1cc2c(s1)C(=O)c1ccsc1C2=O (stereo unspecified)
5. N[C@H]1CCN(c2c(F)cc3c(=O)c(C(=O)O)cn4c3c2Oc2c-4ccc3c2ccc2ccccc23)C1
6. NS(=O)(=O)c1cc(C(=O)O)c(Cl)c([N+](=O)[O-])c1Cl

["2.98 µM", "> 53.7 µM", "> 100 µM", "0.684 µM", "> 100 µM", "> 100 µM"]
